Each record here notes measured log10 of half-life at 2 µM.
# experiment: Plasma stability, mini pig plasma
# Format: in vitro ADME, Mini Pigs
# measurement_context: 37° C.
Note the log scale: values are log10 of half-life at 2 µM expressed in min.

Incoming: Given the molecule CC(C)C(=O)OCCN(C)C(=O)n1ccc2c(N(C)[C@H]3CN(C(=O)CC#N)CC[C@H]3C)ncnc21 , what is its reported log10 of half-life at 2 µM?
Outgoing: 1.39

====

# experiment: Plasma stability, human plasma
# Format: in vitro ADME, Humans
# measurement_context: 37° C., 30 min
measure: % Retained (%)
Numeric only. Scale: %

Some entries whose results are on file:
C[C@@H]1CCN(C(=O)CC#N)C[C@@H]1N(C)c1ncnc2c1ccn2C(=O)N(C)CCOC(=O)C1CCCCC1 [Compound A16] :: 0.0
C[C@@H]1CCN(C(=O)CC#N)C[C@@H]1N(C)c1ncnc2c1ccn2C(=O)N(C)CCOC(=O)C1CCN(C)CC1 [Compound A17] :: 50.7
COCCOCC(=O)OCCN(C)C(=O)n1ccc2c(N(C)[C@H]3CN(C(=O)CC#N)CC[C@H]3C)ncnc21 [Compound A18] :: 0.0
CC(=O)OCCN(C)C(=O)n1ccc2c(N(C)[C@H]3CN(C(=O)CC#N)CC[C@H]3C)ncnc21 [Compound A13] :: 48.2
CCCCC(=O)OCCN(C)C(=O)n1ccc2c(N(C)[C@H]3CN(C(=O)CC#N)CC[C@H]3C)ncnc21 [Compound A22] :: 0.1

Incoming: Given the compound C[C@@H]1CCN(C(=O)CC#N)C[C@@H]1N(C)c1ncnc2c1ccn2C(=O)N(C)CCOC(=O)C(C)(C)C [Compound A23] , what is its reported % Retained?
Outgoing: 40.1

Incoming: Given the compound CC(C)C(=O)OCCN(C)C(=O)n1ccc2c(N(C)[C@H]3CN(C(=O)CC#N)CC[C@H]3C)ncnc21 [Compound A19] , what is its reported % Retained?
Outgoing: 0.0

====

# experiment: Plasma stability, mini pig plasma
# Type: in vitro ADME, Mini Pigs
# measurement_context: 37° C., 30 min
# Method: In addition, the plasma stability of these compounds was determined. […]
Each record here notes measured % Retained.
Numeric only. Scale: %

C[C@@H]1CCN(C(=O)CC#N)C[C@@H]1N(C)c1ncnc2c1ccn2C(=O)N(C)CCOC(=O)C(C)(C)C :: 51.3

Incoming: Given the molecule CCCCC(=O)OCCN(C)C(=O)n1ccc2c(N(C)[C@H]3CN(C(=O)CC#N)CC[C@H]3C)ncnc21 , what is its reported % Retained?
Outgoing: 1.8

Incoming: Given the molecule C[C@@H]1CCN(C(=O)CC#N)C[C@@H]1N(C)c1ncnc2c1ccn2C(=O)N(C)CCOC(=O)C1CCN(C)CC1 , what is its reported % Retained?
Outgoing: 76.0

Incoming: Given the molecule COCCOCC(=O)OCCN(C)C(=O)n1ccc2c(N(C)[C@H]3CN(C(=O)CC#N)CC[C@H]3C)ncnc21 , what is its reported % Retained?
Outgoing: 13.5

====

# experiment: Plasma stability, mini pig plasma
# Format: in vitro ADME, Mini Pigs
# measurement_context: 37° C.
Field: label. Allowed values: Met (half-life at 2 µM < 40 min) or Not met (half-life at 2 µM >= 40 min).

CCCCC(=O)OCCN(C)C(=O)n1ccc2c(N(C)[C@H]3CN(C(=O)CC#N)CC[C@H]3C)ncnc21 [Compound A22] :: Met

Incoming: Quick check: does CC(=O)OCCN(C)C(=O)n1ccc2c(N(C)[C@H]3CN(C(=O)CC#N)CC[C@H]3C)ncnc21 [Compound A13] have half-life at 2 µM under 40 min?
Outgoing: Not met

Incoming: Quick check: does C[C@@H]1CCN(C(=O)CC#N)C[C@@H]1N(C)c1ncnc2c1ccn2C(=O)N(C)CCOC(=O)c1ccncc1 [Compound A15] have half-life at 2 µM under 40 min?
Outgoing: Not met

Incoming: Quick check: does COCCOCC(=O)OCCN(C)C(=O)n1ccc2c(N(C)[C@H]3CN(C(=O)CC#N)CC[C@H]3C)ncnc21 [Compound A18] have half-life at 2 µM under 40 min?
Outgoing: Met

Incoming: Quick check: does C[C@@H]1CCN(C(=O)CC#N)C[C@@H]1N(C)c1ncnc2c1ccn2C(=O)N(C)CCOC(=O)C1CCN(C)CC1 [Compound A17] have half-life at 2 µM under 40 min?
Outgoing: Not met

Incoming: Quick check: does C[C@@H]1CCN(C(=O)CC#N)C[C@@H]1N(C)c1ncnc2c1ccn2C(=O)N(C)CCOC(=O)C1CCCCC1 [Compound A16] have half-life at 2 µM under 40 min?
Outgoing: Met
